Parameter: growth. Scope: all listed entries.
# Test system: 786-0 renal
# experiment_summary: NCI-60 one-dose screen, 48 h (100 = growth as untreated, 0 = no growth, -100 = all killed)
# run_conditions: 10 µM unless noted
About 83,000 compounds went through this panel and 20% of them were active in at least one assay; those are over-represented in the sample as a whole.
Give the quantity in %, number only.

Here's what some known entries look like.
1) COc1c(F)ccc(C(=O)Nc2ccc3nc(NC(=O)C4CCCN(S(=O)(=O)c5ccc(Br)s5)C4)sc3c2)c1F (centres undefined)    61.5
2) COc1ccc(NC(=O)[C@@H](N)Cc2ccccc2)cc1C(=O)Nc1cccc(C2CC(=O)c3c(cc(OC)c(OC)c3OC)O2)c1 (some centres undefined)    72.2
3) CN(C)c1ccnc(NCCCSC(c2ccccc2)(c2ccccc2)c2ccccc2)c1    8.23

So, COc1ccc(-c2nc3ccc(C(=O)NN4C(=O)c5ccc([N+](=O)[O-])cc5C4=O)cc3[nH]2)cc1 ? Its growth was 87.7

---

# Test system: HOP-92 NSCLC
# experiment_summary: NCI-60 one-dose screen, 48 h (100 = growth as untreated, 0 = no growth, -100 = all killed)
# run_conditions: 10 µM unless noted
Compounds without any hit were thinned out: in the full panel of roughly 83,000, 20% have a hit.
readout_type: growth (%)
Give the quantity in %, number only.

1) COc1ccc(C2(SCCNCc3cc(N(C)C)ccn3)c3ccccc3C=Cc3ccccc32)cc1    0.307
2) CC1=C(C(=O)c2ccccc2)C(c2ccc(-n3cncn3)cc2)n2c(nc3ccccc32)N1 (stereo not drawn)    76.1
3) O=C(COc1ccc(NC(=O)Nc2ccc(Cl)c(Cl)c2)cc1)N=Nc1c(O)[nH]c2ccc(Cl)cc12    -30.5
4) Cc1ccc(NC(=O)[C@]23CCC(C)(C)CC2C2=CCC4[C@@]5(C)C[C@@H](O)[C@H](O)[C@@](C)(CO)C5CC[C@@]4(C)[C@]2(C)CC3)cc1 (stereo partly drawn)    -19.6
5) COc1cc2oc(-c3cccc(C(=O)Nc4ccc(Cl)cc4)c3)cc(=O)c2c(OCC(=O)N[C@@H](Cc2ccccc2)C(=O)O)c1OC    124
6) C=C1CC[C@@H]2[C@]3(C)COC(c4cn[nH]c4-c4ccc(OC)cc4)O[C@@H]3CC[C@@]2(C)[C@@H]1C/C=C1/C(=O)OCC1O (stereo partly drawn)    -34.5
7) CC(=O)OC[C@@]1(C)C2CC[C@]3(C)C(CC=C4C5CC(C)(C)CC[C@]5(C(=O)Nc5ccc(Br)cc5)CC[C@]43C)[C@@]2(C)C[C@@H](OC(C)=O)[C@@H]1OC(C)=O (stereo partly drawn)    54.7
8) Cc1ccc([C@H]2C(C(=O)c3ccc(Cl)cc3)C3(N[C@@H]2c2ccccc2)C(=O)Nc2ccc(Br)cc23)cc1 (stereo partly drawn)    21.9
9) CC1(C)CC[C@]2(C(=O)O)CC[C@]3(C)C(=CCC4[C@@]5(C)C[C@@H](O)[C@@H]6OC(c7ccccc7Br)OC[C@@]6(C)C5CC[C@]43C)C2C1 (stereo partly drawn)    -1.51
10) C=C1CC[C@@H]2[C@]3(C)COC(c4cn[nH]c4-c4ccc(C)cc4)O[C@@H]3CC[C@@]2(C)[C@@H]1C/C=C1/C(=O)OCC1O (stereo partly drawn)    -9.12

So, CCOC(=O)C1=C(N)N(c2ccccc2)C2=C(C(=O)CC(C)(C)C2)C1c1ccc(N2CCOCC2)cc1 (stereo not drawn) ? Its growth was 87.7

So, COc1cc(CNC(=O)/C=C/c2ccc3c(c2)OCO3)ccc1OCc1cn(-c2ccc([N+](=O)[O-])cc2)nn1 ? Its growth was 96.7

So, CC(C)c1sc(NC(=O)c2cc(NC(=O)c3cc(NC(=O)c4nccn4C)cn3C)cn2C)nc1C(=O)NCCCN(C)C ? Its growth was -0.363

So, N#Cc1c(-c2ccc(Br)cc2)nc2n[nH]c(-c3ccc(Br)cc3)c2c1-c1ccc(F)cc1 ? Its growth was 112

So, C=C1CCC2C3(C)COC(c4ccc(F)cc4)OC3CCC2(C)C1C/C=C1/C(=O)OCC1O (stereo not drawn) ? Its growth was -43.7

So, Cc1c(C(=O)NNC(=O)c2ccc(Cl)cc2)nnn1-c1ccc(Br)cc1 ? Its growth was 91.6

So, C=CC[N+](C)(C)CCn1c2ccccc2c2nc3cc(C)c(C)cc3nc21 ? Its growth was 111

So, CN(C)CCOc1ccc(C(=O)C2[C@H](c3ccc(Cl)cc3)[C@@H](c3ccccc3)NC23C(=O)Nc2ccc(Br)cc23)cc1 (stereo partly drawn) ? Its growth was 23.5

So, COc1ccc(C(=O)/C=C/c2ccccc2Br)cc1S(N)(=O)=O ? Its growth was 76.8

So, COc1ccc2[nH]cc(-c3nnc(N)nc3-c3cn(C)c4ncc(Br)cc34)c2c1 ? Its growth was 6.98

---

# Tested on: RXF 393 renal
# experiment_summary: NCI-60 one-dose screen, 48 h (100 = growth as untreated, 0 = no growth, -100 = all killed)
# run_conditions: 10 µM unless noted
# Description: Cells are grown in 96 well plates and exposed to the test compound for 48 hours. Compounds are tested at a single concentration, which is 10^-5 M for most compounds. The reported endpoint is percent growth (GI% or GIPRCNT), where numbers from 0 - 100% represent growth inhibition, and numbers from -100% - 0 represent cell death. For example, a value of 40 represents 60% growth inhibition. A value of 0 means no net growth occurred over the course of the experiment. […]
This is part of a sample that, as a whole, favours compounds with a hit. Of some 83,000 tested, about 20% had one in any assay.
readout_type: growth (%)
Give the quantity in %, number only.

Here's what some known entries look like.
1. C#C[C@]1(O)CC[C@H]2[C@@H]3CC=C4c5sc(-c6ccc(O)c(O)c6)nc5CC[C@]4(C)[C@H]3CC[C@@]21C    -90.2
2. C=C1CC[C@@H]2[C@]3(C)COC(c4ccccc4)O[C@@H]3CC[C@@]2(C)[C@@H]1C/C=C1/C(=O)OCC1OC(C)=O (stereo partly drawn)    -87.7
3. Cn1cc(-c2cc(N)n3nc(-c4cn(C)c5ccccc45)cc3n2)c2cc(Cl)ccc21    -73.7

So, Cc1cccc(-c2nc(Nc3ccc(C)c(S(N)(=O)=O)c3)c3ccccc3n2)c1 ? Its growth was 22.6

So, C#CCOc1cc(N(CC)CC)ccc1C(C(=O)NC(C)(C)C)N(C(=O)C1CCc2cc(F)ccc2O1)c1cc(C)cc(C)c1 (stereo not drawn) ? Its growth was 42.9

So, Cc1cc(N=C2NC(=O)CS2)n[nH]1 ? Its growth was 128

So, COc1ccc(NC(=O)[C@@H](N)Cc2ccccc2)cc1C(=O)Nc1cccc(C2CC(=O)c3c(cc(OC)c(OC)c3OC)O2)c1 (stereo partly drawn) ? Its growth was 73.7

So, COc1ccc(C(=O)/C=C/c2cc3c(cc2Br)OCO3)cc1S(N)(=O)=O ? Its growth was -58.2

---

Parameter: growth. Scope: all listed entries.
# Test system: UO-31 renal
# experiment_summary: NCI-60 one-dose screen, 48 h (100 = growth as untreated, 0 = no growth, -100 = all killed)
# run_conditions: 10 µM unless noted
Compounds without any hit were thinned out: in the full panel of roughly 83,000, 20% have a hit.
Give the quantity in %, number only.

Here's what some known entries look like.
1) NS(=O)(=O)c1ccc(-n2cc(-c3cccc(NC(=O)c4cc(Cl)cc(Cl)c4)c3)nn2)cc1    115
2) CNS(=O)(=O)c1ccc(Nc2ccc(C(F)(F)F)cc2)c(-c2cn(C)cn2)c1    9.13
3) O=C(/C=C/c1ccc(O)c(O)c1)NC1CCOC1O (stereo not given)    80.4
4) O=C(/C=C/Nc1ccc(Cl)cc1)c1ccc2c(c1)Nc1ccccc1S2    36.1

With those in mind, consider the next molecule.
So, O=c1cc(-c2ccccc2)oc2cc(OCCCC[P+](c3ccccc3)(c3ccccc3)c3ccccc3)cc(O)c12 ? Its growth was -97.1

---

# Test system: SF-295 CNS
# experiment_summary: NCI-60 one-dose screen, 48 h (100 = growth as untreated, 0 = no growth, -100 = all killed)
# run_conditions: 10 µM unless noted
Compounds without any hit were thinned out: in the full panel of roughly 83,000, 20% have a hit.
Class field: derived from growth; ranges low bracket (below 20%), middle bracket (20% to below 70%), high bracket (70% or more)

// below: answered compounds
1) O=C(N=Nc1c(O)[nH]c2ccc([N+](=O)[O-])cc12)c1ccc2nc(-c3ccccc3)[nH]c2c1    high bracket
2) Cc1cc(=O)oc2cc(OCCOc3ccc(/C=C/C(=O)Nc4ccccc4N)cc3)ccc12    middle bracket
3) COc1ccc2c(c1)C(=N/N=C(\C)c1ccc(OC)c(S(N)(=O)=O)c1)C(=O)N2    high bracket

[Q] Each compound maps to one class by growth. Which class for CC1(C)CC[C@]2(C(=O)O)CC[C@]3(C)C(=CCC4[C@@]5(C)C[C@@H](O)[C@@H]6OC(c7ccc(F)cc7)OC[C@@]6(C)C5CC[C@]43C)C2C1 (stereo not given in full) ?
[A] middle bracket

[Q] Each compound maps to one class by growth. Which class for COc1ccc2[nH]cc(-c3nnc(N)nc3-c3cn(C)c4ncc(Br)cc34)c2c1 ?
[A] high bracket

[Q] Each compound maps to one class by growth. Which class for COc1cc2c(c(OC)c1OC)C(=O)CC(c1cccc(NC(=O)c3cc([N+](=O)[O-])ccc3Cl)c1)O2 (stereo not given) ?
[A] middle bracket

[Q] Each compound maps to one class by growth. Which class for O=C(/C=C/c1ccc(O)c(O)c1)NC1CCOC1O (stereo not given) ?
[A] high bracket
